Value source: patent US20200247800A1

Target: human NOX4 (Homo sapiens, UniProt Q9NPH5)
Construct: membrane fraction used
Experiment: Cell free membrane based in vitro NOX4 assay: H2O2 production by membranes expressing human NOX4, measured with Amplex Red
Details: class symbols
pIC50: −log10 of the molar value.
MEASURE: pIC50

Recorded pIC50, per entry:
Query: Identify the measured pIC50 of CCCn1nc(C)c2c(=O)c(O)c(-c3ccc(OC)cc3F)[nH]c21 for human NOX4 (Homo sapiens, UniProt Q9NPH5).
Response: 7.00 to 7.30

Query: Next: CCc1nn(CCn2cccn2)c2[nH]c(-c3ccccc3Cl)c(O)c(=O)c12
Response: 7.00 to 7.30

Query: Next: Cn1ncc2c(=O)c(O)c(-c3ccc(Cl)cc3Cl)[nH]c21
Response: < 6.82

Others:
Query: Identify the measured pIC50 of Cc1nn(CCN2CCOCC2)c2[nH]c(-c3ccccc3C(F)(F)F)c(O)c(=O)c12 for human NOX4 (Homo sapiens, UniProt Q9NPH5).
Response: 6.82 to 7.00

Query: Next: Cc1nn(C2CC2)c2[nH]c(-c3cc(CNC(=O)C(C)(C)C)ccc3Cl)c(O)c(=O)c12
Response: < 6.82

Query: Next: CCc1nn(CCCN2CCOCC2)c2[nH]c(-c3ccc(F)cc3F)c(O)c(=O)c12
Response: < 6.82

Query: Next: CCc1nn(C)c2[nH]c(-c3ccc(OC)cc3Cl)c(O)c(=O)c12
Response: 7.00 to 7.30

Query: Next: Cc1nn(C2CC2)c2[nH]c(-c3c(F)cc(F)cc3F)c(O)c(=O)c12
Response: < 6.82

Query: Next: O=c1c(O)c(-c2c(F)cccc2F)[nH]c2c1c(CN1CCOCC1)nn2C1CC1
Response: < 6.82

Query: Next: Cn1nc(C(F)(F)F)c2c(=O)c(O)c(-c3ccc(F)cc3Cl)[nH]c21
Response: < 6.82

Query: Next: Cc1nn(C)c2[nH]c(-c3ccc(F)cc3F)c(O)c(=O)c12
Response: 7.00 to 7.30

Query: Next: Cc1nn(CCCO)c2[nH]c(-c3c(F)cccc3F)c(O)c(=O)c12
Response: 7.00 to 7.30

Query: Next: Cc1nn(C(C)C)c2[nH]c(-c3ccccc3Cl)c(O)c(=O)c12
Response: 6.82 to 7.00

Query: Next: Cn1nc(CN2CCOCC2)c2c(=O)c(O)c(-c3c(F)cccc3F)[nH]c21
Response: 7.00 to 7.30

Query: Next: Cc1nn(-c2cccc(F)c2)c2[nH]c(-c3c(F)cccc3F)c(O)c(=O)c12
Response: > 7.30

Query: Next: CCc1nn(C)c2[nH]c(-c3ccc(F)cc3F)c(O)c(=O)c12
Response: < 6.82

Query: Next: CC(C)N1CCN(Cc2nn(C)c3[nH]c(-c4c(F)cccc4F)c(O)c(=O)c23)CC1
Response: 7.00 to 7.30

Query: Next: COCCCn1nc(C)c2c(=O)c(O)c(-c3c(F)cccc3F)[nH]c21
Response: 6.82 to 7.00

----------
Molecular target: human NOX4 (Homo sapiens)
Construct: expressed in transfected cells; membrane fraction used
Experiment: Cell free membrane based in vitro NOX4 assay: H2O2 production by membranes expressing human NOX4, measured with Amplex Red
Assay type: biochemical
Conditions: 1.0 μM compound, read-out: Percentage inhibition at 1.0 μM
Listed here: items and their measured inhibition at 1 µM.
Kindly answer with a numeric value in %, unit omitted.

Recorded inhibition at 1 µM, per entry:
Query: Bench note: what inhibition at 1 µM did CCn1nc(CC(C)C)c2c(=O)c(O)c(-c3c(F)cccc3F)[nH]c21 [Example 122] show?
Response: 72.7

Query: Next: CC(C)N1CCN(Cc2nn(C)c3[nH]c(-c4c(F)cccc4F)c(O)c(=O)c23)CC1 [Example 192]
Response: 90.6

Query: Next: Cn1nc(C(F)(F)F)c2c(=O)c(O)c(-c3ccncc3)[nH]c21 [Example 55]
Response: 83.8

Query: Next: O=c1c(O)c(-c2c(F)cccc2F)[nH]c2c1c(CO)nn2C1CC1 [Example 183]
Response: 84.2

Query: Next: Cc1nn(C2CC2)c2[nH]c(-c3cc(CNC(=O)C(C)(C)C)ccc3Cl)c(O)c(=O)c12 [Example 133]
Response: 77.3

Query: Next: Cc1nn(C)c2[nH]c(-c3ccc(Cl)cc3F)c(O)c(=O)c12 [Example 25]
Response: 90.7

Others:
Query: Bench note: what inhibition at 1 µM did CCc1nn(CCN2CCN(C)CC2)c2[nH]c(-c3c(F)cccc3F)c(O)c(=O)c12 [Example 166] show?
Response: 96.4

Query: Next: CCc1nn(C)c2[nH]c(-c3ccc(F)cc3F)c(O)c(=O)c12 [Example 161]
Response: 71.6

----------
Target: human NOX4 (Homo sapiens)
Construct: expressed in transfected cells; membrane fraction used
Assay: Cell free membrane based in vitro NOX4 assay: H2O2 production by membranes expressing human NOX4, measured with Amplex Red
Format: biochemical
Conditions: 10.0 μM compound, read-out: Percentage inhibition at 10.0 μM
Listed here: items and their measured inhibition at 10 µM.
Kindly answer with a numeric value in %, unit omitted.

Recorded inhibition at 10 µM, per entry:
Query: Bench note: what inhibition at 10 µM did CCCn1nc(C)c2c(=O)c(O)c(-c3c(F)cccc3F)[nH]c21 [Example 79] show?
Response: 81.6

Query: Next: Cc1nn(CCN2C[C@@H](C)O[C@@H](C)C2)c2[nH]c(-c3ccccc3Cl)c(O)c(=O)c12 [Example 148]
Response: 85.3

Query: Next: COc1c(-c2ccccc2Cl)[nH]c2c(c(C)nn2C)c1=O [Example 233]
Response: 69.7

Query: Next: COc1ccc(-c2[nH]c3c(c(C)nn3C)c(=O)c2O)c(F)c1 [Example 19]
Response: 75.2

Query: Next: Cc1nn(C)c2[nH]c(-c3cc(Cl)ccc3Cl)c(O)c(=O)c12 [Example 20]
Response: 96.1

Others:
Query: Bench note: what inhibition at 10 µM did Cc1nn(-c2ccc(F)cc2)c2oc(-c3ccccc3Cl)c(O)c(=O)c12 [Example 231] show?
Response: 9.39

Query: Next: CCn1nc(C)c2c(=O)c(O)c(-c3cccc(C(F)(F)F)c3F)[nH]c21 [Example 104]
Response: 96.9

Query: Next: CCn1nc(C)c2c(=O)c(O)c(-c3c(F)cc(NS(C)(=O)=O)cc3F)[nH]c21 [Example 236]
Response: 87.7

Query: Next: Cn1nc(C(F)(F)F)c2c(=O)c(O)c(-c3ccncc3)[nH]c21 [Example 55]
Response: 94.2

----------
Target: human NOX4 (Homo sapiens, UniProt Q9NPH5)
Construct: expressed in transfected cells; membrane fraction used
Sequence (Q9NPH5 1-578): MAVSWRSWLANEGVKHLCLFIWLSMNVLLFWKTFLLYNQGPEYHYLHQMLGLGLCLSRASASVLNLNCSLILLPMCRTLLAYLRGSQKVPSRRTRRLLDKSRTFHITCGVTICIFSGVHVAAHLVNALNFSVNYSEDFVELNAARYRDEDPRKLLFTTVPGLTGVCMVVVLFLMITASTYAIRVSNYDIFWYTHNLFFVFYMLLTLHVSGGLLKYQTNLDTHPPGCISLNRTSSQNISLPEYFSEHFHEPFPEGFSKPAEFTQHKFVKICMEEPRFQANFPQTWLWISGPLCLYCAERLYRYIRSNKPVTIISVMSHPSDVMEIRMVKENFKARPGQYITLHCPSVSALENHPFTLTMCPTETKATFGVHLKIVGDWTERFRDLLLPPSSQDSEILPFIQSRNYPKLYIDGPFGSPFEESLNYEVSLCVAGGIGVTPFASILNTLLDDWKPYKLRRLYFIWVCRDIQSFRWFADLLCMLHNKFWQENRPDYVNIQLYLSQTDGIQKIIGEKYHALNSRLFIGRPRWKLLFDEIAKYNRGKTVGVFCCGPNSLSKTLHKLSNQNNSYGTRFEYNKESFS
Sequence (P13498 1-195 partner): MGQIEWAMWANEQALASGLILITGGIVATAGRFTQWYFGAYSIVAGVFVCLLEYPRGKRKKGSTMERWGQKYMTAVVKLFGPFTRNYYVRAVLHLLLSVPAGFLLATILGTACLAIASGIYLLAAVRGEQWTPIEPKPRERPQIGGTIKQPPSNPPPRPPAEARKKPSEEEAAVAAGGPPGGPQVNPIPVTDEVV
Assay: Cell free membrane based in vitro NOX4 assay: H2O2 production by membranes expressing human NOX4, measured with Amplex Red
Assay type: biochemical
Details: 1.0 μM compound, read-out: Percentage inhibition at 1.0 μM
MEASURE: inhibition at 1 µM (%)
Kindly answer with a numeric value in %, unit omitted.

Query: Bench note: what inhibition at 1 µM did Cc1nn(C)c2[nH]c(-c3ccccc3Cl)c(O)c(=O)c12 show?
Response: 94.1

Query: Next: Cc1nn(CCCO)c2[nH]c(-c3c(F)cccc3F)c(O)c(=O)c12
Response: 85.1

Query: Next: Cc1nn(CC(C)C)c2[nH]c(-c3c(F)cccc3F)c(O)c(=O)c12
Response: 70.7

Kindly review the next compound as well.
Query: Bench note: what inhibition at 1 µM did CCc1nn(C2CC2)c2[nH]c(-c3c(F)cccc3F)c(O)c(=O)c12 show?
Response: 100
